Assay: Components of the Cytosolic LPS Sensing Pathway: Gene Identification via Genome-wide siRNA Screen;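 further: robust z of the log signal after scaling to non-targeting control siRNA wells of the plate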
Conditions: RAW264.7 macrophages, IL-1a HTRF, actives lie on both sides, screened at 100 nM (by protocol), cells primed 5 h with Pam3CSK4 first
Protocol: Non-canonical inflammasome activation by cytosolic LPS is a critical component of the host response to Gram-negative bacterial infection, however we lack a comprehensive understanding of the cellular processes that control this pathway. […] Lipofectamine RNAiMAX Transfection Reagent ([…]; Invitrogen) was added in […] serum-free, antibiotic-free media to plate wells using a Thermo Scientific Matrix WellMate and Microplate Stacker. […] The plates were read on an EnVision plate reader (PerkinElmer). […]
About 3,700 (7%) of roughly 53,000 sequences were called active. This is one part of a sample in which actives are shown more often than they occur.
So basically: is z-score under 0.1? Then met. Not under? Then not met.

residues	label-value
CCAGAUAGGUAAAAAACAATT against Acta2	met

Problem: Report whether reported z-score is lower than 0.1 (strictly) for CCCAAUCAGCAUUUGCUCUTT against H2-M10.3
Result: not met

Problem: Report whether reported z-score is lower than 0.1 (strictly) for GGUAAAAUGAUCCUUAGAATT against Pcdh15
Result: not met

Problem: Report whether reported z-score is lower than 0.1 (strictly) for GGUGCGCUUCUAUGUUCCUTT against Ssrp1
Result: not met

Problem: Report whether reported z-score is lower than 0.1 (strictly) for CCGCUACCUUAAGCACCUATT against Terf2ip
Result: not met

Problem: Report whether reported z-score is lower than 0.1 (strictly) for GGACCAGUUUGAGUAUGAGTT against Tmem11
Result: met

* * *

Assay: Components of the Cytosolic LPS Sensing Pathway: Gene Identification via Genome-wide siRNA Screen;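 further: robust z of the log signal after scaling to non-targeting control siRNA wells of the plate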
Conditions: RAW264.7 macrophages, IL-1a HTRF, actives lie on both sides, screened at 100 nM (by protocol), cells primed 5 h with Pam3CSK4 first
Hit rate of the full screen: of about 53,000 sequences, about 3,700 (7%) were called active.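 How the source made its calls: active means gene knockdowns whose robust z-score for IL-1 alpha signal is at least 2 or at most -2, so actives lie on both sides; inactive means the rest.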 The full list was thinned out, with actives kept by preference.
Please state which outcome applies, choosing from t for active, f for inactive

Before answering, review these 4 worked examples.
residues	label-value
GCACUAUGACUACAAGAGUTT against Olfr1457	f
CCAUCAGGUUUAAGUCGUATT against Vps36	f
GGAACUUCAUUGAACUAUGTT against Trmt2b	f
GGUCAGAUACAAUGUAUAUTT against Ap1s3	f

Problem: Field: outcome | Entry: GUUAUAGCGGCGAAGGUGUTT against Maml3
Result: f

Problem: Field: outcome | Entry: CCUCUACAUCAGAGUAUGATT against Defb21
Result: t

Problem: Field: outcome | Entry: GGUCUUCAGAAUCCUCAAUTT against Ap1g2
Result: f

Problem: Field: outcome | Entry: GGCUGAAGACACUGAACACTT against Olfr643
Result: t

Problem: Field: outcome | Entry: GGUGGACAAGCAAGUCUAGTT against Ube2o
Result: f

* * *

Assay: Components of the Cytosolic LPS Sensing Pathway: Gene Identification via Genome-wide siRNA Screen;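 further: robust z of the log signal after scaling to non-targeting control siRNA wells of the plate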
Settings: RAW264.7 macrophages, IL-1a HTRF, actives lie on both sides, screened at 100 nM (by protocol), cells primed 5 h with Pam3CSK4 first
Experimental: Non-canonical inflammasome activation by cytosolic LPS is a critical component of the host response to Gram-negative bacterial infection, however we lack a comprehensive understanding of the cellular processes that control this pathway. […] Lipofectamine RNAiMAX Transfection Reagent ([…]; Invitrogen) was added in […] serum-free, antibiotic-free media to plate wells using a Thermo Scientific Matrix WellMate and Microplate Stacker. […] The plates were read on an EnVision plate reader (PerkinElmer). […]
Out of some 53,000 sequences screened, about 3,700 (7%) were called active. This excerpt belongs to a sample that is enriched for actives.
metric: z-score
Numbers only.

Recorded results for 3 sequences are shown here.
residues	observed
GGGAUGCUUUGUUGCUGUUTT against Olfr836	0.296
GGUCUUAAAGCAUGAGAAGTT against Med8	0.541
GACAUAUUUGGGUUUCUAATT against Vmn1r15	-0.645

# return z-score for each item in the list
1. CCUAUAGCAAUGGCAGCAGTT against Pkn1
2. GGACCCUCUAGAUGACCAATT against Trem2

Result:
1: -1.66; 2: -1.09

# return z-score for each item in the list
1. CCUCAUUCGAUACAUCUGUTT against Ints3
2. GGAAGAACUUGUCUCUUUUTT against Tmtc2

Result:
[0.319, 0.501]

# return z-score for each item in the list
1. GGACCAGCUGGACAAAAGATT against Zbtb18
2. GGGUUUCAACCGUCACCUGTT against Pygl

Result:
[0.131, -1.89]

# return z-score for each item in the list
1. GAGUACCAGCUGUUGUUCATT against Olfr392
2. GGGCAAUGGGUGAUCUAAUTT against Phactr1
3. CCAAAUUAUCACCCUGUUCTT against Olfr763
4. GGCCUUCUCUGACUUUCUGTT against Zfp324
5. GGAAGAUGUUAAGAGUUACTT against Slc1a3

Result:
1. 4.22
2. 0.00934
3. -0.0232
4. -0.633
5. -0.865

# return z-score for each item in the list
1. GCUCUACCGUUAAGUUAUUTT against Eif4e2
2. GGGCAAGAACAACUCACUUTT against 4933404G15Rik

Result:
1: 0.499; 2: -2.93

# return z-score for each item in the list
1. CCGAUGAUCAGAGAAACAGTT against Prkar2b
2. CUAUCAAGGGCAGUCAACUTT against Olfr1208
3. CCAGCAUGCAUGAACGAGUTT against Carnmt1
4. GGUUCUGAACACAUUUCCATT against Cyp2d13

Result:
1. -1.25
2. -2.38
3. 0.508
4. -1.07

# return z-score for each item in the list
1. CCUUUGCCUAUGUUUACCATT against Ropn1l
2. GGAGUUUCAACUCUUCUUCTT against Necab2
3. GGCUGUAAAACUCUGGUUUTT against Vmn1r195
4. GGCAGAUGUACUGAUUAAATT against Tmprss11g
5. CCAUAAGUUUGAAGAAUCCTT against Glg1

Result:
1. 0.851
2. -0.576
3. 2.82
4. 1.05
5. 1.45
